Molecular target: IRAK1 (human)
Assay: radiometric filter-binding kinase assay, Kinase HotSpot
Conditions: compound 0.5 µM; ATP 10 µM
property label: residual activity (%)

* COc1cc2c(N3CCN(C(=O)Nc4ccc(OC(C)C)cc4)CC3)ncnc2cc1OCCCN1CCCCC1 | 96.1
* O=S(=O)(NCCNC/C=C/c1ccc(Br)cc1)c1cccc2cnccc12 | 95.7
* COc1cc2c(Nc3ccc(Br)cc3F)ncnc2cc1OCC1CCN(C)CC1 | 87.7
* O=C1NC(=O)c2cc(Nc3ccc(F)cc3)c(Nc3ccc(F)cc3)cc21 | 88.5
* Nc1ncnc2c1cnn2-c1ccccc1 | 85.8
* FC(F)(F)c1ccc(/C=C/c2nc(COc3ccc(CCCCn4ccnn4)cc3)co2)cc1 | 99.5
* CCCCc1c(-c2ccc(O)cc2)[nH]c2nccnc12 | 63.4
* CCOc1cc2ncnc(Nc3cccc(Br)c3)c2cc1OCC | 95.1
* O=c1cc(N2CCOCC2)oc2c(-c3ccccc3)cccc12 | 104
* N#C/C(=C1/Nc2ccccc2S1)c1ccnc(NCCc2cccnc2)n1 | 91.8
* COc1cc2c(cc1OC)-c1[nH]nc(Nc3cccc(F)c3)c1C2 | 97.8
* COc1cccc(-c2cc(=O)c3ccccc3o2)c1N | 98.8
* O=C(c1ccccc1)c1ccc(N2CCOCC2)cc1O | 103
* CCc1nc(-c2ccc(OC)cc2)[nH]c1-c1ccncc1 | 128
* O=c1[nH]c2ccccc2n1C1CCN(Cc2ccc(-c3nc4cc5[nH]cnc5cc4nc3-c3ccccc3)cc2)CC1 | 109
* O=c1c2ccccc2[nH]c(=S)n1CCN1CCC(=C(c2ccc(F)cc2)c2ccc(F)cc2)CC1 | 106
* Cn1cc(/C=C2\C(=O)Nc3ccc(S(N)(=O)=O)cc32)c2ccccc21 | 14.2
* O=c1c(-c2ccc(F)cc2)c(-c2ccncc2)[nH]n1-c1ccc(Cl)cc1 | 103
* N#Cc1c(NC(=O)c2cccc3ccccc23)sc2c1CCCC2 | 104
* c1ccc(-c2cnc(Nc3ccc(OCCN4CCCC4)cc3)s2)cc1 | 109
* Cc1cc(Nc2nc(-c3ccccc3)nc3ccccc23)n[nH]1 | 79.3
* N#CCCc1ccc2c(c1)-c1[nH]c3ccc([N+](=O)[O-])cc3c1CC(=O)N2 | 74.9

----------
Target: UniProtKB P51451
Sequence (P51451 whole entry, looked up): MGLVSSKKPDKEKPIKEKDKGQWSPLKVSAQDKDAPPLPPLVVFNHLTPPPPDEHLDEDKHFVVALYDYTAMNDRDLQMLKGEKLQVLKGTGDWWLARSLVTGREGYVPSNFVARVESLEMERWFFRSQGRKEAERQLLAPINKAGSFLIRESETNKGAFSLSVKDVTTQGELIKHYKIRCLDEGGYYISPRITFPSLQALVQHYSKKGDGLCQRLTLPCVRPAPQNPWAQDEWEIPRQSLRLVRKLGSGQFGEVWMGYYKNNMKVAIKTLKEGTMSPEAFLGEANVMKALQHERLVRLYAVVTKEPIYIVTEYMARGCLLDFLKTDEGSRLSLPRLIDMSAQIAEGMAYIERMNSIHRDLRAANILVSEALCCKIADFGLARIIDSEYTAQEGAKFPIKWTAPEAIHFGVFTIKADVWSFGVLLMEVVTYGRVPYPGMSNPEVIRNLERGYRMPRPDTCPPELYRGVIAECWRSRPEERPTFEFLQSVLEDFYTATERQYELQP
Test: radiometric filter-binding kinase assay, Kinase HotSpot
Details: compound 0.5 µM; ATP 10 µM
The entries below are paired with their reported residual activity.
property label: residual activity (%)

- O=c1c(-c2ccc(F)cc2)c(-c2ccncc2)[nH]n1-c1ccc(Cl)cc1: 91.6
- O=C1NC(=O)c2cc(Nc3ccc(F)cc3)c(Nc3ccc(F)cc3)cc21: 94.3
- O=C1NC(=O)c2c1c1c3ccccc3[nH]c1c1[nH]c3cc(Br)ccc3c21: 83.9
- Nc1ncnc2c1cnn2-c1ccccc1: 100
- Cc1cc(Nc2nc(-c3ccccc3)nc3ccccc23)n[nH]1: 56.2
- O=c1[nH]c2ccccc2n1C1CCN(Cc2ccc(-c3nc4cc5[nH]cnc5cc4nc3-c3ccccc3)cc2)CC1: 106
- COc1cc2ncnc(Nc3ccc(O)c(Br)c3)c2cc1OC: 83.8
- O=c1cc(N2CCOCC2)oc2c(-c3ccccc3)cccc12: 120
- COc1cc2c(N3CCN(C(=O)Nc4ccc(OC(C)C)cc4)CC3)ncnc2cc1OCCCN1CCCCC1: 100
- CCCCc1c(-c2ccc(O)cc2)[nH]c2nccnc12: 85
- Cn1cc(/C=C2\C(=O)Nc3ccc(S(N)(=O)=O)cc32)c2ccccc21: 42.9
- FC(F)(F)c1ccc(/C=C/c2nc(COc3ccc(CCCCn4ccnn4)cc3)co2)cc1: 102
- CCc1nc(-c2ccc(OC)cc2)[nH]c1-c1ccncc1: 105
- N#C/C(=C1/Nc2ccccc2S1)c1ccnc(NCCc2cccnc2)n1: 102
- c1ccc(-c2cnc(Nc3ccc(OCCN4CCCC4)cc3)s2)cc1: 92
- COc1cc2c(Nc3ccc(Br)cc3F)ncnc2cc1OCC1CCN(C)CC1: 33.8
- O=C(c1ccccc1)c1ccc(N2CCOCC2)cc1O: 102
- COc1cc2c(cc1OC)-c1[nH]nc(Nc3cccc(F)c3)c1C2: 74.2
- N/C(=N\N=C/c1ccc(-c2cccc([N+](=O)[O-])c2)o1)N[N+](=O)[O-]: 102
- N#CCCc1ccc2c(c1)-c1[nH]c3ccc([N+](=O)[O-])cc3c1CC(=O)N2: 78.8
- O=C(O)c1ccc2c3c1cccc3c(=O)n1c3ccccc3nc21: 100
- CCOc1cc2ncnc(Nc3cccc(Br)c3)c2cc1OCC: 74.9
